- TARGET OR SYSTEM: TYK2 (Homo sapiens, UniProt P29597)
- Sequence (P29597 whole entry): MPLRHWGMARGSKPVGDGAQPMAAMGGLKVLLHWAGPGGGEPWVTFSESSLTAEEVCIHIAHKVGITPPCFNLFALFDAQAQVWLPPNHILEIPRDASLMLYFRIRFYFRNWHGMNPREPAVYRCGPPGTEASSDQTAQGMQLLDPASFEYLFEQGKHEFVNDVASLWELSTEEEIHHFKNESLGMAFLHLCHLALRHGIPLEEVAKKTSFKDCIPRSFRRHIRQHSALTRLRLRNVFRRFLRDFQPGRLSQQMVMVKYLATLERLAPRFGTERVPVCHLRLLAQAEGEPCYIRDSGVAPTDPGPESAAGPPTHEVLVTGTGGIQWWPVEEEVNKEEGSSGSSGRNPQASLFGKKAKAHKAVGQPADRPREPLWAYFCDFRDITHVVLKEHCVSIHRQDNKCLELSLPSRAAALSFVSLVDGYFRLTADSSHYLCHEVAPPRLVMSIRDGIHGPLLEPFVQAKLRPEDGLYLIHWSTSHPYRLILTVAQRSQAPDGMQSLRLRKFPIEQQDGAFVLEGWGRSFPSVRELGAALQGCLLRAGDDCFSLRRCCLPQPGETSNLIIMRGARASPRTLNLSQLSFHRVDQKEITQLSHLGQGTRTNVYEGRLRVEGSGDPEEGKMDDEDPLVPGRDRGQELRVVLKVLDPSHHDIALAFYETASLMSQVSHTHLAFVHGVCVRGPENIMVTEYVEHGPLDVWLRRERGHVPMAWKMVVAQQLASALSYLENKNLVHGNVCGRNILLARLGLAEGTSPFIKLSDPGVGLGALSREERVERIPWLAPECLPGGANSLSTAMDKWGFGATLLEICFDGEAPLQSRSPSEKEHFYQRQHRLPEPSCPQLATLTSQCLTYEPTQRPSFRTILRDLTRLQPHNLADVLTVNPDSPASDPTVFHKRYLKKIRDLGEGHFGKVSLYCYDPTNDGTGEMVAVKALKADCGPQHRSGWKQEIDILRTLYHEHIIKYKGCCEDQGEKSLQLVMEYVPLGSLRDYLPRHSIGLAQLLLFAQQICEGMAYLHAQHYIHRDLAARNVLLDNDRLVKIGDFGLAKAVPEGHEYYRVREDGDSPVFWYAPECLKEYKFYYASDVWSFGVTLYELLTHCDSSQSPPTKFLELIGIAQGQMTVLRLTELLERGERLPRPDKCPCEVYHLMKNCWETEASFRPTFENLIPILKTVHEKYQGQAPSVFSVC
ASSAY READOUT: IC50

Example molecules with recorded IC50:
- MOLECULE: "O=C(NC1CC(O)(C(F)(F)F)C1)c1noc2c1CN(c1ncnc3[nH]ccc13)CC2 (stereo not drawn)"
  TARGET OR SYSTEM: "TYK2 (Homo sapiens, UniProt P29597)"
  IC50: "> 2000 nM"
- MOLECULE: "O=C(NC(CO)CC(F)(F)F)c1noc2c1CN(c1ncnc3[nH]ccc13)CC2 (stereo not drawn)"
  TARGET OR SYSTEM: "TYK2 (Homo sapiens, UniProt P29597)"
  IC50: "100 to 500 nM"
- MOLECULE: "Cn1nc(C(=O)N[C@H]2C[C@H](CC#N)C2)c2c1CCN(c1ncnc3[nH]ccc13)C2"
  TARGET OR SYSTEM: "TYK2 (Homo sapiens, UniProt P29597)"
  IC50: "> 2000 nM"

# return IC50 for each item in the list
1. O=C(NCC1CCC1O)c1noc2c1CN(c1ncnc3[nH]ccc13)CC2 (stereo not drawn)
2. O=C(NC[C@@H]1CC[C@H]1O)c1noc2c1CN(c1ncnc3[nH]ccc13)CC2 (relative stereo)
3. O=C(NC1CC1C(F)(F)F)c1noc2c1CN(c1ncnc3[nH]ccc13)CC2 (stereo not drawn)
4. O=C(NCCC(F)(F)F)c1noc2c1CN(c1ncnc3[nH]ccc13)CC2
5. O=C(NCCC(F)(F)F)c1nn(CCc2cccnc2)c2c1CN(c1ncnc3[nH]ccc13)CC2
6. O=C(NCCCC1(O)CC1)c1noc2c1CN(c1ncnc3[nH]ccc13)CC2
7. O=C(NCCCC(F)(F)F)c1noc2c1CN(c1ncnc3[nH]ccc13)CC2

(A)
1. > 2000 nM
2. > 2000 nM
3. 500 to 2000 nM
4. 100 to 500 nM
5. > 2000 nM
6. > 2000 nM
7. > 2000 nM
